Target: TNF-alpha (Homo sapiens, UniProt P01375)
Sequence (P01375 77-233 limits assumed, species assumed): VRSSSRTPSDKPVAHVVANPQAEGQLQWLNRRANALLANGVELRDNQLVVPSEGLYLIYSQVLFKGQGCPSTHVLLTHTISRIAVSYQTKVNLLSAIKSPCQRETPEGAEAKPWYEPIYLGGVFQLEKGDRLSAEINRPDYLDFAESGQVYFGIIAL
Assay: Inhibition of TNF-alpha mediated cytotoxicity of L-929 cells (crystal violet)
endpoint label: inhibition at 75 µM (%)
Answers are plain numbers, in %.

# query: inhibition at 75 µM of entry CC(C)C[C@@H]1NC(=O)[C@H](Cc2ccc(O)cc2)NC(=O)[C@H](CCC(N)=O)NC(=O)[C@H](CO)NC(=O)[C@H](Cc2c[nH]c3ccccc23)NC(=O)[C@@H](NC(=O)[C@@H](N)Cc2ccc(O)cc2)CSSC[C@@H](C(=O)N[C@@H](Cc2ccc(O)cc2)C(=O)O)NC1=O
60
